run-description: amyloid nucleation score (Sup35N fusion, yeast selection) (log enrichment); library NNK2; higher = more nucleation; inactive = no reads after selection;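 also: zero at mode of non-aggregating sequences after 7 days selection at 30°C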
Lab note: anything with amyloid nucleation score at or over 0.9 counts as Met; the rest go in Not met.

Check out these entries, answers already filled in.
biopolymer-sequence | classification
KLWSSARFIWLSNHHLHGDC | Met
TIEGALSSS | Met
TFVKRIRYCFYLS | Met

q: Determine whether this sequence has amyloid nucleation score no lower than 0.9: WTWFESVLRPCKGLGRAPHI
a: Not met

q: Has PTSWFRSNMKWFYPVSQPHW a recorded amyloid nucleation score greater than or equal to 0.9?
a: Not met
